Please respond with reported glycan array binding signal (z-score) for every item in the list.
- assayed.system: Neu5Ac(a2-3)Gal(b1-4)[Fuc(a1-3)]GlcNAc(b1-3)GalNAc
- experiment.description: glycan array binding signal (z-score within array); higher = stronger binding
- experimental.setup: glycan notation: IUPAC condensed, linker removed
The entries come from a sample that favours the strongest signals as a whole.
Answers are plain numbers.

Problem: Could you share which glycan array binding signal (z-score) value was measured for LlpA1 (Pseudomonas fluorescens), Q4KHC3 (protein) MGSSHHHHHHSSGLVPRGSHMAWIRYDFTDNGSSVLPARYYMAPNQYLQSPNKRFKLLFQADGNLALYDGAQLAWVADQNTPFTNVSKGNKKDPMMVFMNYGFVLDDPLRGRIWSTTPSDPTMGSREDASLRAFTQVQDDGNIVTVDTIPHWYAPNGRVFTPAVGAAMIIGGTTELVPGQFYSAGEHSLVFQGDGNLVVYGPNSSVIWATYTQNKGGVRCVMQEDGNLVIYAANNGVVWQSGTGGHPGATIRLQANGSFTIVTERPVWARFGYTPTIKPPRVFYPDHKWKTGSYTWNNVF ?
Solution: 0.206

We next turn to a different binder, shown below.
Problem: Could you share which glycan array binding signal (z-score) value was measured for RobpsCRA (Robinia pseudoacacia) (protein) IKGGYWYSGSGLAVSDINPSHFTHLFCAFADLDPNTNKLTISSSNAAAFSTFTQTVRAKNPSVKTLLSIGGGGGRALAAVFANMASQASRRKSFIDSSIQLARRNNFHGLDLDWEYPSSDIDKTNFASLIREWRAAVATESSTSGTPALLLSAAVGGSDQITPLKYYPGEAIANNLDWVNVMTYDLYTSDSYPTLTQPPAPLFYPRGIFSADEGITKWIQSGVPESKLALGLPFYGFKWRLSDPNNHGLFAPATQGLGAVKYKDIVNTGGQVEFDSTYVTNYCFKGTDWYGYDDTQSISAKVAYAKQRGLFGYFAWHIEQDSNWALS ?
Solution: 1.49
